# TARGET UNDER TEST: human recombinant HDAC6 (Homo sapiens, UniProt Q9UBN7)
# TEST: In vitro HDAC enzyme activity inhibition assay (HDAC6)
# DETAILS: same protocol as the HDAC1 test, human recombinant HDAC6 (Calbiochem)
pIC50: −log10 of the molar value.
This listing pairs compounds with measured pIC50.

{"COMPOUND": "O=S(=O)(N1CCN(c2ncccn2)CC1)N(Cc1cn2ccc(-c3nnc(C(F)F)o3)cc2n1)c1ccccc1", "TARGET UNDER TEST": "human recombinant HDAC6 (Homo sapiens, UniProt Q9UBN7)", "pIC50": 6.85}
{"COMPOUND": "O=C(CO)N1CCC(S(=O)(=O)N(Cc2cn3ccc(-c4nnc(C(F)F)o4)cc3n2)c2cccc(F)c2)CC1", "TARGET UNDER TEST": "human recombinant HDAC6 (Homo sapiens, UniProt Q9UBN7)", "pIC50": 7.29}
{"COMPOUND": "CC(CO)N1CCN(S(=O)(=O)N(Cc2cn3ccc(-c4nnc(C(F)F)o4)cc3n2)c2ccccc2)CC1 (stereo not drawn)", "TARGET UNDER TEST": "human recombinant HDAC6 (Homo sapiens, UniProt Q9UBN7)", "pIC50": 7.08}

---

# TARGET UNDER TEST: human recombinant HDAC6 (Homo sapiens, UniProt Q9UBN7)
# Construct: purchased Calbiochem Inc. 382180
# TEST: In vitro HDAC enzyme activity inhibition assay (HDAC6)
# Assay type: biochemical
# DETAILS: HDAC6 over HDAC1

{"SMILES STR": "CC(C)N1CCN(S(=O)(=O)N(Cc2cn3ccc(-c4nnc(C(F)F)o4)cc3n2)c2ccccc2)CC1", "VALUE UNIT": "fold", "HDAC6 selectivity (fold)": 500}
{"SMILES STR": "CN1CCN(S(=O)(=O)N(Cc2cn3ccc(-c4nnc(C(F)F)o4)cc3n2)c2cccc(F)c2)CC1", "VALUE UNIT": "fold", "HDAC6 selectivity (fold)": 561}
{"SMILES STR": "O=S(=O)(N1CCN(c2ccccn2)CC1)N(Cc1cn2ccc(-c3nnc(C(F)F)o3)cc2n1)c1ccccc1", "VALUE UNIT": "fold", "HDAC6 selectivity (fold)": 333}
{"SMILES STR": "CC(C)N1CCN(S(=O)(=O)N(Cc2cn3ccc(-c4nnc(C(F)F)o4)cc3n2)c2cccc(F)c2)CC1", "VALUE UNIT": "fold", "HDAC6 selectivity (fold)": 488}

---

# TARGET UNDER TEST: human recombinant HDAC6 (Homo sapiens)
# TEST: In vitro HDAC enzyme activity inhibition assay (HDAC6)
# DETAILS: same protocol as the HDAC1 test, human recombinant HDAC6 (Calbiochem)
pIC50: −log10 of the molar value.

{"SMILES STR": "CCN1CCN(S(=O)(=O)N(Cc2cn3ccc(-c4nnc(C(F)F)o4)cc3n2)c2cccc(F)c2)CC1", "pIC50": 7.10}
{"SMILES STR": "CCC(=O)N1CCN(S(=O)(=O)N(Cc2cn3ccc(-c4nnc(C(F)F)o4)cc3n2)c2ccccc2)CC1", "pIC50": 6.94}
{"SMILES STR": "O=S(=O)(C1CCN(C2CCC(F)(F)CC2)CC1)N(Cc1cn2ccc(-c3nnc(C(F)F)o3)cc2n1)c1cccc(F)c1", "pIC50": 7.02}
{"SMILES STR": "CN(C)C(=O)N1CCC(S(=O)(=O)N(Cc2cn3ccc(-c4nnc(C(F)F)o4)cc3n2)c2cccc(F)c2)CC1", "pIC50": 7.00}
{"SMILES STR": "O=C(N1CCN(S(=O)(=O)N(Cc2cn3ccc(-c4nnc(C(F)F)o4)cc3n2)c2cccc(F)c2)CC1)C(F)(F)F", "pIC50": 7.01}

---

This listing pairs compounds with measured IC50.
# TARGET UNDER TEST: human recombinant HDAC6 (Homo sapiens, UniProt Q9UBN7)
# Sequence (Q9UBN7 1-1215): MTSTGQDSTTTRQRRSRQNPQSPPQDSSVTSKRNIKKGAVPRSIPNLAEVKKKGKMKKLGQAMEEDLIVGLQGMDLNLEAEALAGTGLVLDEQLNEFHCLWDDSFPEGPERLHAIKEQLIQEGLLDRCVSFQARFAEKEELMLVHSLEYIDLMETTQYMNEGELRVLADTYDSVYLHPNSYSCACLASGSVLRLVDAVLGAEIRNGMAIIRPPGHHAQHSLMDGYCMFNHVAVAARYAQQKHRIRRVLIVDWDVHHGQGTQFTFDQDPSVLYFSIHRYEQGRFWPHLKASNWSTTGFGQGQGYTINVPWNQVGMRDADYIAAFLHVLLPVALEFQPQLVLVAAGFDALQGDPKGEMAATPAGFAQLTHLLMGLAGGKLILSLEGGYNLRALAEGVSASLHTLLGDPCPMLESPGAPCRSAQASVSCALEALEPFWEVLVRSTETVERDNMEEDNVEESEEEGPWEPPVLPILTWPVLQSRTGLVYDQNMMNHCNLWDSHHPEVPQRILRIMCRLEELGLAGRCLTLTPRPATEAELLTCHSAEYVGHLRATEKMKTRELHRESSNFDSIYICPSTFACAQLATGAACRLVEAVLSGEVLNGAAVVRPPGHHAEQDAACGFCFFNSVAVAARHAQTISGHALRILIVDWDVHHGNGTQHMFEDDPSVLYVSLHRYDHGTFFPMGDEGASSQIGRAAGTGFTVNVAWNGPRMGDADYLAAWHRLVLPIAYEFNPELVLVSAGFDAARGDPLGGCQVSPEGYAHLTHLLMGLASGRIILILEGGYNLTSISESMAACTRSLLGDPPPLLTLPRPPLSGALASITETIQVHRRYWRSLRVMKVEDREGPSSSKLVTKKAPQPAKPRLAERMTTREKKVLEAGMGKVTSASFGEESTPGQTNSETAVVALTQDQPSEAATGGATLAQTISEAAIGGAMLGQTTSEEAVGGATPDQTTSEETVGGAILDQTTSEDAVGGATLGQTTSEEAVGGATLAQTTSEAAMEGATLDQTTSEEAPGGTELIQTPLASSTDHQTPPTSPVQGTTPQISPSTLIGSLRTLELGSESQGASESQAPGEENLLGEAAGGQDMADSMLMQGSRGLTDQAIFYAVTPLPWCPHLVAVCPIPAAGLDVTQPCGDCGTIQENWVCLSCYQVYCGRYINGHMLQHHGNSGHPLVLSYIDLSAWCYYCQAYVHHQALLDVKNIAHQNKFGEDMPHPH
# TEST: In vitro HDAC enzyme activity inhibition assay (HDAC6)
# DETAILS: same protocol as the HDAC1 test, human recombinant HDAC6 (Calbiochem)

{"SMILES STR": "CN1CCC(S(=O)(=O)N(Cc2cn3ccc(-c4nnc(C(F)F)o4)cc3n2)c2ccccc2)CC1", "TARGET UNDER TEST": "human recombinant HDAC6 (Homo sapiens, UniProt Q9UBN7)", "IC50 / nM": 91}
{"SMILES STR": "CCN1CCN(S(=O)(=O)N(Cc2cn3ccc(-c4nnc(C(F)F)o4)cc3n2)c2ccccc2)CC1", "TARGET UNDER TEST": "human recombinant HDAC6 (Homo sapiens, UniProt Q9UBN7)", "IC50 / nM": 74.2}
{"SMILES STR": "O=S(=O)(N1CCN(C2CCC2)CC1)N(Cc1cn2ccc(-c3nnc(C(F)F)o3)cc2n1)c1cccc(F)c1", "TARGET UNDER TEST": "human recombinant HDAC6 (Homo sapiens, UniProt Q9UBN7)", "IC50 / nM": 84.1}
{"SMILES STR": "CCC(=O)N1CCN(S(=O)(=O)N(Cc2cn3ccc(-c4nnc(C(F)F)o4)cc3n2)c2cccc(F)c2)CC1", "TARGET UNDER TEST": "human recombinant HDAC6 (Homo sapiens, UniProt Q9UBN7)", "IC50 / nM": 137}

---

# TARGET UNDER TEST: human recombinant HDAC6 (Homo sapiens)
# TEST: In vitro HDAC enzyme activity inhibition assay (HDAC6)
# DETAILS: same protocol as the HDAC1 test, human recombinant HDAC6 (Calbiochem)

{"COMPOUND": "CN(C)C(=O)N1CCN(S(=O)(=O)N(Cc2cn3ccc(-c4nnc(C(F)F)o4)cc3n2)c2cccc(F)c2)CC1 [Compound 4314]", "IC50 (µM)": 0.108}
{"COMPOUND": "O=S(=O)(C1CCN(C2CCOCC2)CC1)N(Cc1cn2ccc(-c3nnc(C(F)F)o3)cc2n1)c1ccccc1 [Compound 4219]", "IC50 (µM)": 0.104}
{"COMPOUND": "CN1CCC(S(=O)(=O)N(Cc2cn3ccc(-c4nnc(C(F)F)o4)cc3n2)c2cccc(F)c2)CC1 [Compound 4236]", "IC50 (µM)": 0.0738}
{"COMPOUND": "O=S(=O)(N1CCN(C2COC2)CC1)N(Cc1cn2ccc(-c3nnc(C(F)F)o3)cc2n1)c1ccccc1 [Compound 4261]", "IC50 (µM)": 0.085}
{"COMPOUND": "O=S(=O)(C1CCN(C2CCOCC2)CC1)N(Cc1cn2ccc(-c3nnc(C(F)F)o3)cc2n1)c1cccc(F)c1 [Compound 4243]", "IC50 (µM)": 0.0943}
{"COMPOUND": "CN1CC2(C1)CN(S(=O)(=O)N(Cc1cn3ccc(-c4nnc(C(F)F)o4)cc3n1)c1ccccc1)C2 [Compound 4624]", "IC50 (µM)": 0.084}
